The following binders are listed with their measured Kd values.
# MEASURED_TARGET: T1, PUF4 RNA-binding domain (Saccharomyces cerevisiae, UniProt P25339 537-888)
# T1 sequence: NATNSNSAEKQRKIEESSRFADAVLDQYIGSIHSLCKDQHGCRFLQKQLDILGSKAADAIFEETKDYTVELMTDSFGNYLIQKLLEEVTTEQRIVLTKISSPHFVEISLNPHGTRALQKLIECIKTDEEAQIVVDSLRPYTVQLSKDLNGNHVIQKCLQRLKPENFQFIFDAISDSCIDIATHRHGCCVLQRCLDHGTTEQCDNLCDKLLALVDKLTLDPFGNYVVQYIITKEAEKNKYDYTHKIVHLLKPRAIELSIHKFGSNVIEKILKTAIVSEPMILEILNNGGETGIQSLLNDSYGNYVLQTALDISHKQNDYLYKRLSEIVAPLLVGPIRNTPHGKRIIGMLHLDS
# TEST_PROTOCOL: Mg; RNA-MaP; 20 mM Na-HEPES pH 7.4, 30 mM KOAc, 0.75 mM MgCl2, 0.1% Tween-20, 5% glycerol, 0.1 mg/mL BSA, 2 mM DTT; 25 C; 0.0125-409.6 nM protein
# MEASUREMENT_CONTEXT: tags: N-His6-TEV cleaved; C-SNAP kept, Cy3B-labelled; label: tethered on chip by stalled RNA polymerase
Field format: number, assumed nM, no unit text.

// below: answered binders
BINDER	READING_UNIT	REPORTED_MEASUREMENT
UCUCUUUGUAUUGGUUUCUCUU (ssRNA) [Ic_S1_P5E.1_K5.1_C5.1_H5.1_A5.1_[A7G]_F5.1_[T8G]_[A10T]_T5.1]	nM	711
Ie_S2_P5E.1_K5.1_C5.1_H5.1_[+2TT]_A5.1_F5.1_T5.1 (ssRNA) RNA: UUUGAUUAAUAUGAUAUCGUUCUUUCUUGUUUAUUAUUAUUCUUUCUCGAUAUCAUAUUAAUCUUU	nM	6.21
Ib_S2_P5E.1_K5.1_C5.1_H5.1_[T3C]_A5.1_[T5C]_F5.1_T5.1 (ssRNA) RNA: UUUGAUUAAUAUGAUAUCGUUCUUUCUUGCACUAUUAUUCUUUCUCGAUAUCAUAUUAAUCUUU	nM	276
Id_iii_S2_P5E.6_K5.2_C5.3_H5.2_A5.1_F5.1_T5.2_[A12T] (ssRNA) RNA: UUUGAUUAAUAUGAUAUCGUUCUUUCUUCUUAUAUUAUUAUUUUCUUUCUCGAUAUCAUAUUAAUCUUU	nM	42.1
Id_iii_S2_P5E.5_K5.1_C5.3_H5.1_A5.1_F5.1_T5.2_[A12C] (ssRNA) RNA: UUUGAUUAAUAUGAUAUCGUUCUUUCUUCUUGUAUUAUUAUCUUCUUUCUCGAUAUCAUAUUAAUCUUU	nM	1.64
Ic_S4_P4E.1_K4.1_C4.1_H4.1_A4.1_[T5A]_[A6T]_[T7A]_F4.1_[A9C]_T4.1 (ssRNA) RNA: UUUGACAACUGAUCGUUCUUUCUUGUAAUAUCUUCUUUCUCGAUCAGUUGUCUUU	nM	46.2

Next binder, Kd to be filled in.
I am curious: what Kd value has been reported for Id_iii_S4_P3E.7_K3.3_C3.3_[C-2G]_H3.3_A3.1_F3.1_T3.2 (ssRNA) RNA: UUUGACAACUGAUCGUUCUUUCUUGUACACUAUAUAUUCUUUCUCGAUCAGUUGUCUUU ? 0.724
